Attribution: patent US20230416245A1

- TGT: UniProtKB P0DMS8
- Sequence (P0DMS8 whole entry): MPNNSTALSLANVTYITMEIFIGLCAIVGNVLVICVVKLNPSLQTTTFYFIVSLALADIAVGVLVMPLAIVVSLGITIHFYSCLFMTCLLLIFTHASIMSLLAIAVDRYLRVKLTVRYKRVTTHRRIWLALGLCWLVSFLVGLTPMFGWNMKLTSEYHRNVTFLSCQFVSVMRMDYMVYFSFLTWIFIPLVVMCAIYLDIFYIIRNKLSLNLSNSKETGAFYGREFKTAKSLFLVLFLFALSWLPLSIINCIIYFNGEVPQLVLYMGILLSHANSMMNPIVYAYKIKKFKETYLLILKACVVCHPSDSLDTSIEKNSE
- ASSAY_COMMENT: Intracellular calcium release assay (FLIPR)
- Assay type: cell-based
- TEST_SETTINGS: percentage of the response to NECA
MEASURED_METRIC: Cell Calcium Efficacy (%)
Number first, unit second: that is the form wanted.

Consider the worked cases shown below.
O[C@@H]1[C@H](O)[C@@H]2C[C@@H]2[C@H]1n1cnc2c(NC3CCC3)cc(Cl)nc21 | 52%
O[C@@H]1[C@H](O)[C@@H]2C[C@@H]2[C@H]1n1cnc2c(NCC(F)F)c(F)c(Cl)nc21 | 67.3%
CNC(=O)[C@@]12C[C@@H]1[C@@H](n1cnc3c(NCC(F)F)cc(Cl)nc31)[C@H](O)[C@@H]2O | 106%

Problem: Consider the compound shown here: O[C@@H]1[C@H](O)[C@@H]2C[C@@H]2[C@H]1n1cnc2c(NCC(F)F)nc(Cl)nc21 What is its recorded Cell Calcium Efficacy (%)?
Result: 46.8%

Problem: Consider the compound shown here: O[C@@H]1[C@H](O)[C@@H]2C[C@@H]2[C@H]1n1cnc2c(NCC(F)(F)F)nc(Cl)nc21 What is its recorded Cell Calcium Efficacy (%)?
Result: 49.4%

Problem: Report Cell Calcium Efficacy (%) for CCNc1cc(C#CC2CC2)nc2c1ncn2[C@H]1[C@H](O)[C@H](O)[C@@H]2C[C@@H]21 please.
Result: 4.8%

Problem: Consider the compound shown here: O[C@@H]1[C@H](O)[C@@H]2C[C@@H]2[C@H]1n1cnc2c(NCC(F)(F)F)cc(Cl)nc21 What is its recorded Cell Calcium Efficacy (%)?
Result: 45.8%
